Sourced from ChEMBL document CHEMBL5523755

- ASSAY_COMMENT: Stability of the compound in simulated physiological fluid (SPF) assessed as compound remaining measured upto 120 mins relative to control
- Type: ADME
- DETAILS: read-out: Stability
ENDPOINT_LABEL: remaining at 2 h (%)

CC1=C(C(=O)NCCc2c[nH]c3ccccc23)C(c2ccc(Cl)c(Cl)c2)C2=C(CC(C)(C)CC2=O)N1 (stereo unspecified)	96.2

###

- ASSAY_COMMENT: Elimination half life in Sprague-Dawley rat at 100 mg/kg, po measured after 48 hrs by LC-MS/MS analysis
- Format: ADME, organism-based
- DETAILS: in vivo, read-out: beta t1/2 (converted)
ENDPOINT_LABEL: half-life (min)

CC1=C(C(=O)NCCc2c[nH]c3ccccc23)C(c2ccc(Cl)c(Cl)c2)C2=C(CC(C)(C)CC2=O)N1 (stereo unspecified)	857

###

- ASSAY_COMMENT: Stability of the compound in rat plasma assessed as compound remaining measured upto 120 mins relative to control
- Assay type: ADME, cell-free
- DETAILS: read-out: Stability
ENDPOINT_LABEL: remaining at 2 h (%)

CC1=C(C(=O)NCCc2c[nH]c3ccccc23)C(c2ccc(Cl)c(Cl)c2)C2=C(CC(C)(C)CC2=O)N1 (stereo unspecified)	90.2

###

- ASSAY_COMMENT: Tmax in Sprague-Dawley rat at 100 mg/kg, po measured after 48 hrs by LC-MS/MS analysis
- Format: ADME, organism-based
- DETAILS: in vivo
ENDPOINT_LABEL: Tmax (min)

CC1=C(C(=O)NCCc2c[nH]c3ccccc23)C(c2ccc(Cl)c(Cl)c2)C2=C(CC(C)(C)CC2=O)N1 (stereo unspecified)	25.2

###

- TESTED_SYSTEM: UniProt:P19357
- Sequence (whole entry): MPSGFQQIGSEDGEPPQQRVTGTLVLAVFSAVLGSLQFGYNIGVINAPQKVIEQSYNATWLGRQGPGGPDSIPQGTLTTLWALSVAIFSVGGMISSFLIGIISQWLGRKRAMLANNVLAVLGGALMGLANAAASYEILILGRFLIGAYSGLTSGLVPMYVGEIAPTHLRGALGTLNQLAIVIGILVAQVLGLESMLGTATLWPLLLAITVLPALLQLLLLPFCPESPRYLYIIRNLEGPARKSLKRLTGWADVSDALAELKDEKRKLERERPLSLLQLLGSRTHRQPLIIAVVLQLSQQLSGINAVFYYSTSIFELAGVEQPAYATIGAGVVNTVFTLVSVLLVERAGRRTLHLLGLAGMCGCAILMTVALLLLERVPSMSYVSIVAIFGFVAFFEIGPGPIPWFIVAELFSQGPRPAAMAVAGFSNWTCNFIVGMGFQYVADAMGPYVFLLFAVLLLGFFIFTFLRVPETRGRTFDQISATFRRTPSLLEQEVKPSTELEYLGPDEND
- ASSAY_COMMENT: Induction of GLUT4 translocation in rat L6-GLUT4myc skeletal muscle cells assessed as translocation to cell surface by measuring fold stimulation at 10 uM measured after 1 hr incubation by antibody-coupled colorimetric assay relative to control
- Type: cell-based
- DETAILS: filed as modulator
ENDPOINT_LABEL: fold change (FC)

CC1=C(C(=O)NCCc2c[nH]c3ccccc23)C(c2ccc(C(F)(F)F)cc2)C2=C(CC(C)(C)CC2=O)N1 (centres undefined)	1.58
CC1=C(C(=O)NCCc2c[nH]c3ccccc23)C(c2ccc(F)cc2)C2=C(CC(C)(C)CC2=O)N1 (centres undefined)	1
COc1cc(C2C(C(=O)NCCc3c[nH]c4ccccc34)=C(C)NC3=C2C(=O)CCC3)cc(OC)c1OC (centres undefined)	1.79
CC1=C(C(=O)NCCc2c[nH]c3ccccc23)C(c2ccc(Cl)cc2)C2=C(CC(C)(C)CC2=O)N1 (centres undefined)	1.49

###

We begin with a simple list: items and their reported fold change (FC).
- TESTED_SYSTEM: Solute carrier family 2, facilitated glucose transporter member 4 (Rattus norvegicus)
- ASSAY_COMMENT: Induction of GLUT4 translocation in rat L6-GLUT4myc skeletal muscle cells assessed as translocation to cell surface by measuring fold stimulation at 10 uM measured after 1 hr incubation by antibody-coupled colorimetric assay relative to control
- Format: cell-based
- DETAILS: filed as modulator
ENDPOINT_LABEL: fold change (FC)

COc1ccc(C2C(C(=O)NCCc3c[nH]c4ccccc34)=C(C)NC3=C2C(=O)CC(C)(C)C3)cc1OC (centres undefined)	1.3
CC1=C(C(=O)NCCc2c[nH]c3ccccc23)C(c2ccc(F)cc2)C2=C(CCCC2=O)N1 (centres undefined)	1.54
CC1=C(C(=O)NCCc2c[nH]c3ccccc23)C(c2ccc(Cl)c(Cl)c2)C2=C(CC(C)(C)CC2=O)N1 (centres undefined)	2.96
CC1=C(C(=O)NCCc2c[nH]c3ccccc23)C(c2scnc2C)C2=C(CC(C)(C)CC2=O)N1 (centres undefined)	1
